tested on: SNB-78; test: NCI tumour cell line growth inhibition, 48 h
Calls of active or inactive are those of the source. No stated cut-off is given here; in the data, active = GI50 up to about 1.1 µM and inactive = higher.
// reported GI50 for each item listed
PROPERTY_LABEL: GI50

COMPOUND	RESULT
O=C1/C(=C\c2ccccc2)c2ccccc2N1/N=C\c1ccccc1	> 100 µM (inactive)
CC(=O)OC1CC2C(C)(C)C(=O)C=C[C@]2(C)C2CCC3(C)C(=CC(=O)C3c3ccoc3)[C@]12C (stereo partly specified)	31.4 µM (inactive)
O=C(Nc1cccc([N+](=O)[O-])c1)/C(=N\NC(=O)c1ccncc1)c1nc2ccc([N+](=O)[O-])cc2nc1O	> 100 µM (inactive)
COc1ccc(/C=C2\C(=O)NC(=O)c3ccccc32)cc1OC	6.58 µM (inactive)
NS(=O)(=O)OCCCCCCCOS(N)(=O)=O	526 µM (inactive)
CCNCC(=O)O[C@]1(CC)C(=O)OCc2c1cc1n(c2=O)Cc2cc3ccccc3nc2-1	5.11 µM (inactive)
Cn1cnnc1Sc1c([N+](=O)[O-])ncn1C	45.9 µM (inactive)
O=C(NC(=O)c1cn(CCN2CCNCC2)c(=O)[nH]c1=O)OCc1ccccc1	> 100 µM (inactive)
N#CC(C(=O)/C(=N/NC(=O)c1ccccc1O)C(C#N)c1ccc(Cl)cc1)c1ccc(Cl)cc1 (stereo unspecified)	19.5 µM (inactive)
N=C1SCCS1	> 100 µM (inactive)
NC(=O)c1cccc([N+](=O)[O-])c1	> 100 µM (inactive)
O=C1[C@H]2ON(c3ccccc3)C(c3ccc([N+](=O)[O-])cc3)[C@H]2C(=O)N1c1ccc(Cc2ccc(N3C(=O)[C@@H]4ON(c5ccccc5)C(c5ccc([N+](=O)[O-])cc5)[C@@H]4C3=O)cc2)cc1 (stereo partly specified)	> 100 µM (inactive)
CC(C)(C)C1CCC(CI)(N=[N+]=[N-])CC1 (stereo unspecified)	> 100 µM (inactive)
Cc1[nH]c(=O)nc(N/N=C/c2ccc(O)cc2)c1C(=O)Nc1ccc(Cl)cc1	> 100 µM (inactive)
COc1ccc2c(c1)C1C(CO2)C(c2ccccc2)=NN1c1ccccc1 (stereo unspecified)	> 100 µM (inactive)
COc1c(O)c(O)cc2c1-c1ccc(OC)c(=O)cc1C(NC(C)=O)CC2 (stereo unspecified)	3.12 µM (inactive)
CN1CCC23c4ccccc4NC1C21CCN(C)C3Nc2ccccc21	151 µM (inactive)
Cc1ccccc1NC(=O)c1c(C)oc2c1C(=O)c1ccccc1C2=O	1.86 µM (inactive)
CCOc1ccc(/C=C(\Cl)c2ccc(OC)c(OC)c2)cc1	89.5 µM (inactive)
CC(=O)Oc1cc2c(cc1OC(C)=O)OCC(c1ccc(C)cc1)C2 (stereo unspecified)	21.6 µM (inactive)
CCCCCCCCCCCCCCCCCCOCC(O)CO (stereo unspecified)	> 25 µM (inactive)
O=C(N/N=C(/c1nc2ccc([N+](=O)[O-])cc2[nH]c1=O)C(O)c1ccc([N+](=O)[O-])cc1)c1ccncc1 (stereo unspecified)	> 100 µM (inactive)
COC(=O)/C(=N\N)C(C(=O)C(=O)Nc1nnc(S)[nH]1)c1nc2ccc([N+](=O)[O-])cc2nc1O (stereo unspecified)	> 100 µM (inactive)
COc1ccc(NC(=O)CC(=O)n2nc(-c3ccccc3)c(/N=N/c3ccc(C)cc3)c2-c2ccccc2)cc1	20.8 µM (inactive)
N#CC(C(=O)/C(=N\NC(N)=O)C(C#N)c1ccccc1)c1ccccc1 (stereo unspecified)	> 100 µM (inactive)
O=C(C(O)c1cn(Cc2ccccc2)c2ccccc12)N1CCCCC1 (stereo unspecified)	> 10 µM (inactive)
